tested on: Leishmania donovani; assay: Leishmania intramacrophage assay; type: functional, organism-based; parameters: scale not given: in the data most compounds retested in dose-response had high values; settings: 30.3 µM; […]
Out of some 69,000 compounds screened, about 1,000 (1.4%) showed an effect of 50% or more. The full list was thinned out, with strong results kept by preference.
Please use TRUE whenever Percent Effect is not below 30%, and FALSE whenever it is.

Some solved entries appear below for comparison.
{"columns": ["molecule", "target", "labelClass"],
 "data": [
  ["CC(C)S(=O)(=O)CCN1CCN(C(C#N)c2ccccc2)CC1 (stereo not given)", "Leishmania donovani", "FALSE"],
  ["CCN(C)S(=O)(=O)NCC(O)c1c(Cl)cccc1Cl (stereo not given)", "Leishmania donovani", "TRUE"],
  ["COc1cc(N2CC[C@@H]3O[C@@H](c4ccnc(C)n4)C[C@H]3C2)ncn1", "Leishmania donovani", "FALSE"],
  ["CN(C)Cc1ccc(C(=O)N2CCCC(n3cccn3)C2)cc1 (stereo not given)", "Leishmania donovani", "FALSE"],
  ["Cc1ccc(N2CC[C@@H]3O[C@@H](c4ccncn4)C[C@H]3C2)nn1", "Leishmania donovani", "FALSE"]
]}

Does the reported Percent Effect for CCc1ccc(CN2Cc3nccn3CC(Cn3cncn3)C2)o1.O=C(O)C(F)(F)F (stereo not given) fall at or above the 30% mark?
FALSE

Does the reported Percent Effect for CCN(CC)S(=O)(=O)NCC(O)c1c(Cl)cccc1Cl (stereo not given) fall at or above the 30% mark?
TRUE

Does the reported Percent Effect for COc1ccc(C(C)NCCc2ccc(NC(C)=O)cc2)cc1F (stereo not given) fall at or above the 30% mark?
FALSE

Does the reported Percent Effect for "CCN(CC)CCNC(=O)c1ccc(-n2ccc3ccccc32)s1" fall at or above the 30% mark?
TRUE

Does the reported Percent Effect for CCCS(=O)(=O)CCN1CCN(C(C#N)c2ccccc2)CC1 (stereo not given) fall at or above the 30% mark?
TRUE

====

test system: Leishmania donovani; assay: Leishmania intramacrophage assay; assay type: functional, organism-based; parameters: scale not given: in the data most compounds retested in dose-response had high values; settings: 30.3 µM; […]
Screen size: about 69,000 compounds; about 1,000 (1.4%) showed an effect of 50% or more. The entries come from a sample that favours strong results as a whole.
Percent Effect reference
Record the value in %, omitting the unit from your answer.

{"columns": ["molecule", "Percent Effect [%]"],
 "data": [
  ["FC(F)(F)c1nc(NC2CCCCC2)c2ccccc2n1", 22.7]
]}

Consider the molecule "N#Cc1cccc(CN2C(=O)C3(CCNCC3)Nc3ccccc32)c1" and give its recorded Percent Effect.
37.63

Consider the molecule "Cc1ccccc1NCc1nc2n(n1)CCCCC2" and give its recorded Percent Effect.
-2.813

Consider the molecule "CCOC(=O)C1(Cc2ccccc2-c2ccccc2OC)CCNCC1.Cl" and give its recorded Percent Effect.
51.68

Consider the molecule Cc1cc(C2CCCN(CC(=O)Nc3nc4c(s3)CCC4)C2)n[nH]1 (configuration not stated) and give its recorded Percent Effect.
34.8

Consider the molecule O=C(CN1CCCC(c2ccn[nH]2)C1)Nc1nncs1 (configuration not stated) and give its recorded Percent Effect.
11.72

Consider the molecule "NC(=O)CSCC(=O)NCC1CCCC1" and give its recorded Percent Effect.
12

Consider the molecule Cl.O=C(NCc1ccc(F)cc1)N1CCN(CC(O)C2CC2)CC1 (configuration not stated) and give its recorded Percent Effect.
10.63

====

test system: Leishmania donovani; assay: Leishmania intramacrophage assay; format: functional, organism-based; set-up: scale not given: in the data most compounds retested in dose-response had high values; settings: 30.3 µM; […]
In all, about 69,000 compounds went through this assay and about 1,000 (1.4%) showed an effect of 50% or more. The sample holds strong results, similar compounds and a random draw of the others, so the mix is not that of the screen.
Percent Effect reference
Record the value in %, omitting the unit from your answer.

{"columns": ["molecule", "target", "measurementUnits", "Percent Effect"],
 "data": [
  ["Cc1nc(-c2ncc(C(=O)NCCNc3ncccc3C)c(O)n2)cs1", "Leishmania donovani", "%", 28.4],
  ["CCOCC(=O)N1CCOCC2(CCN(c3ncccn3)C2)C1.O=C(O)C(F)(F)F (centres undefined)", "Leishmania donovani", "%", -3.02],
  ["CC(C)c1cc(C(=O)NCCc2nc(-c3ccncc3)n[nH]2)[nH]n1", "Leishmania donovani", "%", -0.4105]
]}

# input for lookup
Consider the molecule "COCCNC(=O)Cn1cc2c(n1)c(C)nn2C" and give its recorded Percent Effect.
-28.68

====

Percent Effect reference
test system: Leishmania donovani; experiment: Leishmania intramacrophage assay; type: functional, organism-based; parameters: scale not given: in the data most compounds retested in dose-response had high values; settings: 30.3 µM; […]
In all, about 69,000 compounds went through this assay and about 1,000 (1.4%) showed an effect of 50% or more. What follows is part of a selection rich in strong results, with near analogues and random picks from the rest.
Record the value in %, omitting the unit from your answer.

{"columns": ["molecule", "resultNumber"],
 "data": [
  ["CCCc1nc(NCCCOCC)c2c(n1)c(C)nn2CC", 51.09]
]}

Consider the molecule COCCN1CCCC(c2ncc(C(=O)N(C)C)c(C)n2)C1 (stereo unspecified) and give its recorded Percent Effect.
-9.482

Consider the molecule "Cc1nc(N2CCCC2)nc2c1CCN(C(=O)c1ccoc1C)CC2" and give its recorded Percent Effect.
54.38

Consider the molecule "CCCc1nc(NCCOC)c2c(n1)c(C)nn2CC" and give its recorded Percent Effect.
9.64

Consider the molecule "CCCc1nc(NCCc2ccccc2)c2c(n1)c(C)nn2CC" and give its recorded Percent Effect.
98.89

Consider the molecule "CN(Cc1cccc(OC(F)(F)F)c1)Cc1cnn(C)c1" and give its recorded Percent Effect.
10.05

====

test system: Leishmania donovani; assay: Leishmania intramacrophage assay; format: functional, organism-based; parameters: scale not given: in the data most compounds retested in dose-response had high values; conditions: 30 µM
The whole screen tested about 69,000 compounds, of which about 1,000 (1.4%) showed an effect of 50% or more. This is one part of a sample in which strong results are shown more often than they occur.
measuredProperty: Percent Effect (%)
Record the value in %, omitting the unit from your answer.

{"columns": ["molecule", "measurementUnits", "resultNumber"],
 "data": [
  ["CC(C)c1cc(NC(=O)c2ccncc2)[nH]n1", "%", -9.457],
  ["CC(C)OCCN1CCN(C(C)c2nc(C3CC3)no2)CC1 (configuration not stated)", "%", 6.668],
  ["Cc1ccc(CC(=O)Nc2cc(C(C)C)n[nH]2)cn1", "%", 62.25]
]}

# input for lookup
Consider the molecule CCc1nc(C2CCCN2C(=O)CCc2cscn2)no1 (configuration not stated) and give its recorded Percent Effect.
-30.43

====

system: Leishmania donovani; experiment: Leishmania intramacrophage assay; format: functional, organism-based; set-up: scale not given: in the data most compounds retested in dose-response had high values; conditions: 30.3 µM; […]
The campaign covered roughly 69,000 compounds. About 1,000 (1.4%) showed an effect of 50% or more. The sample as a whole holds a higher share of strong results than the screen did.
Class field: derived from Percent Effect; ranges bin A (below 10%), bin B (10% to below 30%), bin C (30% or more)

{"columns": ["compound", "labelClass"],
 "data": [
  ["Cc1cc(Nc2cnccn2)nc(C2CCCN(CCO)C2)n1 (stereo not drawn)", "bin C"],
  ["O=C(O)C(F)(F)F.c1cnc(N2CCO[C@H]3[C@H](OCC4CCOCC4)CC[C@@H]32)nc1", "bin B"],
  ["NC(=O)CN1CCC(OCc2ccc(Cl)c(Cl)c2)CC1", "bin C"],
  ["CC1CCN(C(=O)C(C)N2CCc3[nH]nc(C(F)(F)F)c3C2)CC1 (stereo not drawn)", "bin B"]
]}

Lab note: sort "CN(C)C(=O)c1cccc(CCNc2ccccc2S(C)(=O)=O)c1" into the matching Percent Effect band.
bin A

Lab note: sort "CNC(=O)CN1CCC(OCc2ccc(Cl)c(Cl)c2)CC1" into the matching Percent Effect band.
bin B

Lab note: sort "O=C(Nc1ccccc1)c1n[nH]c(-n2cnnc2)n1" into the matching Percent Effect band.
bin B

Lab note: sort COc1ccccc1C(C)CC(=O)N1CC[C@H](O)C1 (stereo partly drawn) into the matching Percent Effect band.
bin A

Lab note: sort "COc1c(C)cnc(CN(C)C2CCN(C3CCOCC3)CC2)c1C" into the matching Percent Effect band.
bin C

Lab note: sort "COCCNc1nc(N2CCOCC2)nc2nccnc12" into the matching Percent Effect band.
bin B

Lab note: sort O=C(O)C1(Cc2cccc(Cl)c2)CCCN(c2ncnc3[nH]ccc23)C1 (stereo not drawn) into the matching Percent Effect band.
bin B

Lab note: sort "Cc1ccc(NC(=O)c2n[nH]c(-n3cnnc3)n2)cc1" into the matching Percent Effect band.
bin C
